Test: Cytotoxicity against human PBMC assessed as cell killing at IC50 after 48 hrs by MTT assay
Details: PBMC (peripheral blood mononuclear cells)
readout: cell killing at 48 h (%)
Answer format: numeric, % implied, no suffix.

Consider the reported cell killing at 48 h for these compounds:
smilesnotation=O=C(c1ccco1)c1cc2cc(Br)ccc2oc1=S readout="cell killing at 48 h" u=% reportedresult=10.7
smilesnotation=COc1cccc2cc(C(=O)c3ccc(Cl)cc3)c(=S)oc12 readout="cell killing at 48 h" u=% reportedresult=0.46
smilesnotation=COc1ccc(C(=O)c2cc3cccc(OC)c3oc2=S)cc1 readout="cell killing at 48 h" u=% reportedresult=16.6

Challenge: Give the value of cell killing at 48 h reported for the following: C[C@@H]1[C@H](O)[C@@H](C)/C=C/C=C/C=C/C=C/C=C/C=C/C=C/[C@H](O[C@@H]2O[C@H](C)[C@@H](O)[C@H](N)[C@@H]2O)C[C@@H]2O[C@](O)(C[C@@H](O)C[C@@H](O)[C@H](O)CC[C@@H](O)C[C@@H](O)CC(=O)O[C@H]1C)C[C@H](O)[C@H]2C(=O)O
Response given: 16

Challenge: Give the value of cell killing at 48 h reported for the following: O=C(c1cccs1)c1cc2cc(Br)ccc2oc1=S
Response given: 10.9
